Data provenance: patent US4104383A

Give EC50 for every item shown.
Test system: isolated rat duodenum
Assay: Antispasmodic activity, barium chloride-induced spasms of isolated rat duodenum
Conditions: tyrode bath 37° C, barium chloride 100 μg/liter, compound added 3 minutes before, read-out: 50% effective concentration
Please give a number only; it is taken to be in ng/mL.

input: May I ask what EC50 has been recorded for CCN(CC)CCCc1ccc(C2CCCCC2)c(Cl)c1 ?
output: 0.6

input: Let us now turn to CCN(CC)CC=Cc1ccc(-c2ccccc2)cc1
output: 3

input: Now try CCN(CC)CCCc1ccc(-c2ccccc2)cc1 .
output: 1

====

Tested on: mouse
Test: Reserpine test (reserpine-induced depression)
Type: in vivo
Settings: ip, I.P., reserpine 5 mg/kg subcutaneously, read-out: Reserpine, median effective dose
I'd appreciate it if you could supply ED50 values for the items below.

input: API: value(readout=ED50, system=mouse) for record CCN(CC)CC=Cc1ccc(-c2ccccc2)cc1 [994 CB, 4-(3-diethylamino-propen-1-yl)-biphenyl]
output: 50 mg/kg

input: Query CCN(CC)CCCc1ccc(C2CCCCC2)c(Cl)c1 [934 CB] next
output: 50 mg/kg

input: Try this compound next: Clc1cc(CCCN2CCCC2)ccc1C1CCCCC1 [31016 CB]
output: 50 mg/kg

input: And then CCN(CC)CC=Cc1ccc(C2CCCCC2)c(Cl)c1 [933 CB] , what is it?
output: 75 mg/kg

input: Same read-out for Clc1cc(C=CCN2CCCC2)ccc1C1CCCCC1 [31015 CB] ?
output: 50 mg/kg

====

Test system: isolated rat duodenum
Test: Antispasmodic activity, barium chloride-induced spasms of isolated rat duodenum
Conditions: tyrode bath 37° C, barium chloride 100 μg/liter, compound added 3 minutes before, read-out: 50% effective concentration
value type: EC50

input: What is its EC50 for isolated rat duodenum? Entry: CN(C)CC=Cc1ccc(C2CCCCC2)c(Cl)c1
output: 1 to 3 ng/mL

input: Check CCN(CC)CC=Cc1ccc(C2CCCCC2)c(Cl)c1 too.
output: 0.6 to 1 ng/mL

input: Repeat with Clc1cc(C=CCN2CCCC2)ccc1C1CCCCC1
output: 1 to 3 ng/mL
